target: SARS-CoV-2 3CLpro (Severe acute respiratory syndrome coronavirus 2, UniProt P0DTD1)
assay: biochemical
Type: biochemical
testConditions: 4 h, sheet LOPAC_screen_w_protease; primary screen of LOPAC1280 at 5 µM with protease; replicate 1; read-out: Replicate_1
Structures can show the parent of a compound that is named as a salt.
experimentalReadout: inhibition at 5 µM (%)
Quick note: give the figure in %, leave out the unit.

QUERY: Lab note: need inhibition at 5 µM for CCCCCN(CCCCC)C(=O)C(CCC(=O)O)NC(=O)c1ccc(Cl)c(Cl)c1 (stereo not drawn) [Lorglumide sodium] on SARS-CoV-2 3CLpro (Severe acute respiratory syndrome coronavirus 2, UniProt P0DTD1), anyone have it?
RESULT: 2.9

QUERY: Lab note: need inhibition at 5 µM for CN1CCC(=C2c3ccccc3CC(=O)c3sccc32)CC1 [Ketotifen fumarate] on SARS-CoV-2 3CLpro (Severe acute respiratory syndrome coronavirus 2, UniProt P0DTD1), anyone have it?
RESULT: 4.97

QUERY: Lab note: need inhibition at 5 µM for CN[C@H](CC(=O)O)C(=O)O [N-Methyl-D-aspartic acid] on SARS-CoV-2 3CLpro (Severe acute respiratory syndrome coronavirus 2, UniProt P0DTD1), anyone have it?
RESULT: 4.04

QUERY: Lab note: need inhibition at 5 µM for CC(CN1c2ccccc2Sc2ccccc21)N(C)C (stereo not drawn) [Promethazine hydrochloride] on SARS-CoV-2 3CLpro (Severe acute respiratory syndrome coronavirus 2, UniProt P0DTD1), anyone have it?
RESULT: 1.74

QUERY: Lab note: need inhibition at 5 µM for Clc1ccc2c(c1)C(N1CCNCC1)=Nc1ccccc1O2 [Amoxapine] on SARS-CoV-2 3CLpro (Severe acute respiratory syndrome coronavirus 2, UniProt P0DTD1), anyone have it?
RESULT: 3.65

QUERY: Lab note: need inhibition at 5 µM for C=C1C(=O)O[C@H]2[C@H]1CC/C(C)=C/CC[C@@]1(C)O[C@@H]21 [Parthenolide] on SARS-CoV-2 3CLpro (Severe acute respiratory syndrome coronavirus 2, UniProt P0DTD1), anyone have it?
RESULT: 3.99

QUERY: Lab note: need inhibition at 5 µM for N=C(NCCC[C@H](N)C(=O)O)N[N+](=O)[O-] [NG-Nitro-L-arginine] on SARS-CoV-2 3CLpro (Severe acute respiratory syndrome coronavirus 2, UniProt P0DTD1), anyone have it?
RESULT: 2.33

QUERY: Lab note: need inhibition at 5 µM for CCCn1c(=O)c2[nH]c(-c3ccc(OCC(=O)Nc4ccc(C#N)cc4)cc3)nc2n(CCC)c1=O [MRS 1754] on SARS-CoV-2 3CLpro (Severe acute respiratory syndrome coronavirus 2, UniProt P0DTD1), anyone have it?
RESULT: 1.48

QUERY: Lab note: need inhibition at 5 µM for CC(N)C(=O)OC(C)(C)Cc1ccc(Cl)cc1 (stereo not drawn) [Alaproclate hydrochloride] on SARS-CoV-2 3CLpro (Severe acute respiratory syndrome coronavirus 2, UniProt P0DTD1), anyone have it?
RESULT: 2.81
